Molecular target: T1, human CD300LB on primary human monocytes (human, UniProt A8K4G0 18-201)
T1 construct: Endogenous protein on primary cells; that the target is CD300LB is inferred from the antibodies being anti-CD300LB antibodies; also called Monocyte donor 1281; Monocyte donor 1282
T1 sequence: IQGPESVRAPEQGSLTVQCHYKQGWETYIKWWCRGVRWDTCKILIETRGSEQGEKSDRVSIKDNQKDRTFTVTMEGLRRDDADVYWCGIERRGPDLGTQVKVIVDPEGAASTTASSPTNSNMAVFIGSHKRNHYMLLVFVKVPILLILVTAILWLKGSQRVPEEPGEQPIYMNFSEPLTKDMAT
Experiment: flow cytometry, primary human monocytes donor 1282, 10 ug/mL antibody, isotype control subtracted
metric_name: gMFI (gMFI)
One number for each entry, in gMFI.

Suppose we examine the binder anti-CD300LB antibody CD-07 (antibody, V domains shown) VH: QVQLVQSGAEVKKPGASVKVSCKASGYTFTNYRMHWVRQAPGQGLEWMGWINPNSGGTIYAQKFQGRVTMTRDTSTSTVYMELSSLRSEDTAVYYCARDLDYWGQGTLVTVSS VL: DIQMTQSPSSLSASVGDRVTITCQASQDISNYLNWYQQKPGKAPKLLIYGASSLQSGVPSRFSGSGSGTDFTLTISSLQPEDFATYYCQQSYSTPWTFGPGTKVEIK ; what gMFI value has been reported?
468
